ENDPOINT: melting point

sample_smiles=CNc1nc(C)c(-c2ccnc(Nc3ccc(CCO)cc3)n2)s1 result="216 to 218 °C"
sample_smiles=Cc1nc(C)c(-c2ccnc(Nc3ccc(NC(=O)CCl)cc3)n2)s1 result="217 to 219 °C"
sample_smiles=CNc1nc(C)c(-c2ccnc(Nc3cccc(CN)c3)n2)s1 result="287 to 289 °C"
sample_smiles=CC(=O)NCc1cccc(Nc2nccc(-c3sc(C)nc3C)n2)c1 result="206 to 207 °C"
sample_smiles=CCNc1nc(C)c(-c2ccnc(Nc3cccc(CN)c3)n2)s1 result="290 to 292 °C"
sample_smiles=CNc1nc(C)c(-c2ccnc(Nc3cccc(CNC(C)=O)c3)n2)s1 result="253 to 255 °C"
sample_smiles=Cc1nc(N2CCOCC2)sc1-c1ccnc(Nc2ccc(N3CCOCC3)cc2)n1 result="229 to 231 °C"
